# PROTOCOL: in vivo
# EXPERIMENTAL_PARAMETERS: male, mouse, po, 20 mg/kg
READOUT_LABEL: Cmax (ng/mL)
Give bare numbers, in ng/mL.

Let me know recorded Cmax for `Cc1nnc(-c2noc3c(F)c4c(cc23)CC2(C(=O)NC(=O)NC2=O)[C@H]2[C@H](C)O[C@H](C)CN42)o1` , thanks.
9500

====

# PROTOCOL: in vivo
# EXPERIMENTAL_PARAMETERS: male, mouse, iv, 2 mg/kg
READOUT_LABEL: half-life (h)
Answers are plain numbers, in h.

Let me know recorded half-life for `Cc1nnc(-c2noc3c(F)c4c(cc23)CC2(C(=O)NC(=O)NC2=O)[C@H]2[C@H](C)O[C@H](C)CN42)o1` , thanks.
3.7

The values you see were collected from paper PMC9017349.
